Target: T1, full-length recombinant human PAD4 (human, UniProt Q9UM07 1-663)
T1 construct: Full-length recombinant; also called peptidylarginine deiminase 4
T1 sequence (Q9UM07 whole entry): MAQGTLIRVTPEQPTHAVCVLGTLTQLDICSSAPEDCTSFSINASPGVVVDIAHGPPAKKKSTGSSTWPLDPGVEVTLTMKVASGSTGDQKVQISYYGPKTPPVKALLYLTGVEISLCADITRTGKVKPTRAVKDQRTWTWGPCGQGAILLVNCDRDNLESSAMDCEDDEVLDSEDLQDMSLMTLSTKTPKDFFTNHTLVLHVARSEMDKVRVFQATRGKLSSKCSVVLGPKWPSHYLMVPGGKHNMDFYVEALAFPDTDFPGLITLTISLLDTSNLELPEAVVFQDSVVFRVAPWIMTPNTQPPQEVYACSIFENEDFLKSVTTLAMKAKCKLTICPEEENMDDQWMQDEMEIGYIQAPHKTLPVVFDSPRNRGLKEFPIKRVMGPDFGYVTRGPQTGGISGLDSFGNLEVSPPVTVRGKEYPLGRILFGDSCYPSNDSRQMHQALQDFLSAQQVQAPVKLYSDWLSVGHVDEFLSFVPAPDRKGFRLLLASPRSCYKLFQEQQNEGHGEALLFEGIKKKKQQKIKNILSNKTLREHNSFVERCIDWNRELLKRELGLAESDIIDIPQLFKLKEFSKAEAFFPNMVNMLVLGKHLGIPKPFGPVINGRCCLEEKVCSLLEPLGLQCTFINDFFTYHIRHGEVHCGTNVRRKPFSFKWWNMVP
Test: SPR (Biacore T200), antibody captured, human PAD4 analyte
quantity_kind: kon (M⁻¹ s⁻¹)
Give your result in M⁻¹ s⁻¹ as a bare value.

Record A11 (antibody, V domains shown, Chicken variable regions in a mouse chimeric antibody (IgG1); also called anti-PAD4 antibody A11) VH: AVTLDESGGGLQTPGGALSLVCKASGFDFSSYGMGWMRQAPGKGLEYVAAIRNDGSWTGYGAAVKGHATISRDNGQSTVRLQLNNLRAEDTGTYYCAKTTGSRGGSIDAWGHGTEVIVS VL: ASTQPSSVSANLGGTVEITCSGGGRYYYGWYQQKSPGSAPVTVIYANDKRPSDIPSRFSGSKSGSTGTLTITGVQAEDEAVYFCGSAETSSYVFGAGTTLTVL . Reported kon: 129000

G9 (antibody, V domains shown, Chicken variable regions in a mouse chimeric antibody (IgG1); also called anti-PAD4 antibody G9) VH: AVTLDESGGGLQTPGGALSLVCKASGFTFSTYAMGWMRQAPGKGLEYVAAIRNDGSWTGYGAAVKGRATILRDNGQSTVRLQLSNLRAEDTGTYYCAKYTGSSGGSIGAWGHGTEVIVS VL: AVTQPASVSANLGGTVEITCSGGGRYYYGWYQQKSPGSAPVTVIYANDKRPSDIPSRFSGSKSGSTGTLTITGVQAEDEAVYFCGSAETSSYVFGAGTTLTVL has a reported kon of 90000
